experiment: in vitro; conditions: rat, plasma
ENDPOINT_LABEL: fraction unbound
API note: the answer field is a bare number with no unit suffix.

IN: Reported fraction unbound, compound `COc1ccc(-c2cc3c(C)nc(N)nc3n([C@H]3CC[C@H](OCCO)CC3)c2=O)cn1` : ____
OUT: 0.202
